tested on: tested cancer cell lines (SW480, SW620, PC3, MDA-MB-231); assay: MTT assay, mean over tested cancer cell lines; assay type: cell-based; conditions: Homo sapiens; Table S7; mean of the four cancer cell lines, >100 entered as 100; read-out: mean anticancer IC50
pIC50: −log10 of the molar value.
measured_property: pIC50

[[record]]
molecule = "CCOC(=O)C1C(=O)Oc2ccccc2C1P(=O)(OCC)OCC (stereo not drawn) [Compound 4d]"
measured_property = "pIC50"
test_result = "< 4.00"

[[record]]
molecule = "COc1ccc2cc(C(=O)O[C@@H]3C[C@H](C)CC[C@H]3C(C)C)c(=O)oc2c1 [Compound 1c]"
measured_property = "pIC50"
test_result = "< 4.00"

[[record]]
molecule = "CC(C)[C@H]1CC[C@H](C)C[C@@H]1OC(=O)c1cc2ccccc2oc1=O [Compound 1b]"
measured_property = "pIC50"
test_result = "< 4.00"


Query string: Sample COc1cccc2c1OC(=O)C(C(=O)O[C@@H]1C[C@H](C)CC[C@H]1C(C)C)C2P(=O)(c1ccccc1)c1ccccc1 (mixture of isomers) [Compound 4b] — what was its pIC50?
Result string: 4.54

Query string: One more molecule: COc1cccc2cc(C(=O)O[C@@H]3C[C@H](C)CC[C@H]3C(C)C)c(=O)oc12 [Compound 1d]
Result string: < 4.32

Query string: Moving on to CC(C)[C@@H]1CC[C@@H](C)C[C@H]1OC(=O)c1cc2ccccc2oc1=O [Compound 1a]
Result string: 4.18

Query string: Same question for O=C(OC1CCCCC1)c1cc2ccccc2oc1=O [Compound 1f] please.
Result string: < 4.00

Query string: Would you mind doing CCOP(=O)(OCC)C1C(=O)Oc2c(OC)cccc2C1P(=O)(c1ccccc1)c1ccccc1 (stereo not drawn) [Compound 5b] as well?
Result string: < 4.00

Query string: Same for CC(C)[C@@H]1CC[C@@H](C)C[C@H]1OC(=O)C1C(=O)Oc2ccccc2C1P(=O)(c1ccccc1)c1ccccc1 (mixture of isomers) [Compound 4a]
Result string: 4.93

Value source: paper PMC12529164
